# systemTested: Alpha-2C adrenergic receptor (Homo sapiens)
# testMethodNotes: modulators of alpha2C/GIRK thallium flux, primary screen, cell-based, HEK293 alpha2C/GIRK1/2 (AID 624);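 further: slope of fluorescence ratio to pre-addition baseline per second over 15 to 24 s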
# appliedConditions: thallium flux BTC fluorescence, at 10 µM, actives lie on both sides
metricName: slope
Answer with the value's number alone.

Recorded slope for CC(C)(C)NCC(O)c1cc(O)cc(O)c1 (configuration not stated) , please? 0.00544

Recorded slope for Cc1nc2c(c(=O)n1CC1CCCO1)c1nc3ccccc3nc1n2CCC(C)C (configuration not stated) , please? 0.00821

Recorded slope for "C[C@H]1C[C@@H]2[C@H]([C@@H](O)C[C@@]3(C)[C@H]2CC[C@]3(O)C(=O)CO)[C@@]2(C)C=CC(=O)C=C12" , please? 0.00539

Recorded slope for "C[C@]12CC[C@@H]3c4ccc(O)cc4CC[C@H]3[C@@H]1CCC2=O" , please? 0.00425

Recorded slope for N#CC1=C(SCC(=O)c2ccc(Br)cc2)NC2=C(C(=O)CCC2)C1c1ccco1 (configuration not stated) , please? 0.00589

Recorded slope for CC1CN(C2CCN(S(=O)(=O)Cc3ccccc3)CC2)CC(C)O1 (configuration not stated) , please? 0.00538

Recorded slope for "CCCCNC1=C(Br)C(=O)CC(C)(C)C1" , please? 0.00547

Recorded slope for "O=C(OCCN1CCOCC1)c1ccc(OCCN2CCOCC2)cc1" , please? 0.00568

Recorded slope for "O=C(Nc1ccccc1C(=O)NCCCn1ccnc1)c1ccccc1" , please? 0.00553

Recorded slope for "O=C(O)c1ccccc1Nc1cccc(C(F)(F)F)c1" , please? 0.00472

Recorded slope for CC1(C)CC(=O)C2=C(C1)Oc1nc3ccccc3cc1C2C(C#N)C#N (configuration not stated) , please? 0.00783

Recorded slope for "C[C@H](CS)C(=O)N1CCC[C@H]1C(=O)O" , please? 0.00488

Recorded slope for "CN1CCN(CCCN2c3ccccc3Sc3ccc(Cl)cc32)CC1" , please? 0.00441

Recorded slope for "CC(C)OC(=O)[C@H]1[C@H](c2ccc(Cl)cc2)[C@@](C#N)(C(N)=O)[C@@H]2C=CC(C(N)=O)=CN21" , please? 0.00427

Recorded slope for "Clc1cccc(-c2nn3c(-c4cccc(Cl)c4)nnc3s2)c1" , please? 0.00698

Recorded slope for "COc1cccc(-c2nc(NCc3ccco3)c3ccccc3n2)c1O" , please? 0.00506

Recorded slope for Cc1ccc(N2C(=O)C3ON(c4ccccc4)C(c4ccncc4)C3C2=O)cc1 (configuration not stated) , please? 0.0052

Recorded slope for "CC(=O)Oc1cccc2c1C(=O)c1c(OC(C)=O)cc(C(=O)O)cc1C2=O" , please? 0.00622

Recorded slope for CC(C(=O)N1CCCCC1)N1C(=O)c2ccccc2C1=O (configuration not stated) , please? 0.00537

Recorded slope for "CC(=O)Nc1ccc(Oc2ccc3nc(C)[nH]c3c2)cc1" , please? 0.00532

Recorded slope for CCOP(=O)(c1ccccc1)c1nc(-c2ccc(F)cc2)oc1N1CCCCC1 (configuration not stated) , please? 0.00389

Recorded slope for "CCOc1ccc(-c2nnc3sc(COc4ccccc4)nn23)cc1" , please? 0.00528

====

Record form. Attribute: NADPH fluorescence slope. Fill in for each entry.
# systemTested: Voltage-gated potassium channel subunit beta-2 (Rattus norvegicus)
# testMethodNotes: KvBeta positive modulators, primary screen, biochemical, NADPH fluorescence (AID 623);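 further: fluorescence intensity change per second fitted from 20 to 320 s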
# appliedConditions: Recombinant KvBeta, NADPH fluorescence decrease slope, 10 min; at 10 µM; hits give low values
Answer with the value's number alone.

Recorded NADPH fluorescence slope for Cc1nc2c(c(=O)n1CC1CCCO1)c1nc3ccccc3nc1n2Cc1ccc2c(c1)OCO2 (stereo unspecified) , please? -0.000106

Recorded NADPH fluorescence slope for "O=C(c1ccccc1F)N1CCC(N2CCCCCC2)CC1" , please? -1.4e-05

Recorded NADPH fluorescence slope for "C/C(=C\C(=O)O)CC(=O)O" , please? -0.000131

Recorded NADPH fluorescence slope for CCCOc1ccc(/C(O)=C2/C(=O)C(=O)N(CCCN3CCOCC3)C2c2ccncc2)cc1 (stereo unspecified) , please? -1.2e-05

Recorded NADPH fluorescence slope for "c1coc(-c2nnc3sc(C4CCCCC4)nn23)c1" , please? -0.000143

Recorded NADPH fluorescence slope for COC(=O)c1[nH]c(C)c(/C(O)=C2\C(=O)C(=O)N(CCN3CCOCC3)C2c2cccnc2)c1C (stereo unspecified) , please? -0.000197

Recorded NADPH fluorescence slope for "CCCCC(=O)Nc1c(O)c2ccccc2[nH]c1=O" , please? -0.000197

Recorded NADPH fluorescence slope for "CCOCc1nc(N)[nH]c(=O)c1Cc1ccc(OC(C)C)cc1" , please? -2e-05

Recorded NADPH fluorescence slope for "CC(=O)N=C(N)Sc1nc2ccccc2[nH]1" , please? -0.000171

Recorded NADPH fluorescence slope for COc1cccc2c(=O)c(SC(F)(F)C(F)C(F)(F)F)c(C)[nH]c12 (stereo unspecified) , please? -3e-05

Recorded NADPH fluorescence slope for "N#Cc1nc(-c2cccs2)oc1NCCN1CCOCC1" , please? -2.5e-05
